Molecular target: Cytochrome P450 1A2 (Homo sapiens)
Assay: Cytochrome panel assay with activity outcomes
Details: recombinant CYP, pro-luciferin dealkylation, luminescence, p450-cyp1a2; series mostly up to 57.1 µM
About 5,700 (36%) of roughly 16,000 compounds were called active. Roughly 24% stayed inconclusive and do not appear here. Calls follow the shape of the dose curve; as a rule, active = well fitted curve in the direction sought with a large enough effect; inconclusive = small, poorly fitted or top-dose-only effect, or effect the other way; inactive = no such curve, though single readings can be large or run the other way. This is one part of the list.
Outcome codes: active, inactive

>  <Compound>
COc1ccc2c(c1)C(=O)N(CCc1ccc(S(=O)(=O)NC(=O)NC3CCCCC3)cc1)C(=O)C2(C)C

>  <Label>
inactive

$$$$
>  <Compound>
CCc1ccc(OCC(=O)Nc2ccc(-c3nc4ccccc4o3)c(O)c2)cc1

>  <Label>
inactive

$$$$
>  <Compound>
c1ccc2cc(NCNc3ccc4ccccc4c3)ccc2c1

>  <Label>
active

$$$$
>  <Compound>
C=CCSc1nnc(NC(=O)COc2ccc3ccccc3c2)s1

>  <Label>
inactive

$$$$
>  <Compound>
FC(F)(F)c1ccccc1-c1ccc2ncnc(NCc3cccnc3)c2c1

>  <Label>
active

$$$$
>  <Compound>
COc1ccc(/C=N/NC(=O)CCCC(=O)NC2CCCCC2)cc1

>  <Label>
active

$$$$
>  <Compound>
COc1ccc(C(C(=O)NC2CCCCC2)N(C(=O)CCCC(=O)Nc2ccccn2)c2ccc3c(c2)OCCO3)cc1 (stereo unspecified)

>  <Label>
inactive

$$$$
>  <Compound>
CC(C)C[C@@H](N)C(=O)Nc1ccc2ccccc2c1

>  <Label>
active

$$$$
>  <Compound>
Cc1ccc([N+](=O)[O-])cc1NC(=S)NC(=O)CC(C)(C)C

>  <Label>
active

$$$$
>  <Compound>
O=C(COc1ccc2ccccc2c1)Nc1ccc(Cc2ccncc2)cc1

>  <Label>
active

$$$$
>  <Compound>
CCCC[C@@H]1C[C@H]1C(NC(=O)c1ccccc1)c1ccc(Cl)cc1 (stereo partly specified)

>  <Label>
active

$$$$
>  <Compound>
O=C(CCc1ccccc1)NNC(=O)C1CCCCC1

>  <Label>
inactive

$$$$
>  <Compound>
CC(C)NC(=O)N1CCC2(CC1)CCN(C(=O)c1ccncc1)CC2

>  <Label>
inactive

$$$$
>  <Compound>
C/C=C\C(=O)N(CC)c1ccccc1C

>  <Label>
inactive

$$$$
>  <Compound>
C=C(CC1([C@@H](NP(=O)(c2ccccc2)c2ccccc2)[C@H]2C[C@@H]2CCCC)CC1)c1ccccc1

>  <Label>
inactive

$$$$
>  <Compound>
CC(=O)CC(=O)Nc1ccc2ccccc2c1

>  <Label>
active

$$$$
>  <Compound>
CC(=O)c1cc(C)ccc1OC(=O)CCN1C(=O)C2C3c4ccccc4C(c4ccccc43)C2C1=O (stereo unspecified)

>  <Label>
active

$$$$
>  <Compound>
C=CCN(CC=C)C(=O)C(=O)c1cc(C)n(-c2ccc([N+](=O)[O-])cc2)c1C

>  <Label>
inactive

$$$$
>  <Compound>
C[C@@]1(C(NC(=O)c2ccc(-c3ccccc3)cc2)c2ccc(Cl)cc2)C[C@H]1C1CCCCC1 (stereo partly specified)

>  <Label>
inactive

$$$$
>  <Compound>
N#Cc1ccc(Oc2nc(C(N)=O)cc(-c3ccccc3)n2)cc1

>  <Label>
active

$$$$
>  <Compound>
O=C(CCc1ccc(S(=O)(=O)NC2CCCCC2)cc1)N(Cc1ccccc1)Cc1ccccc1

>  <Label>
active

$$$$
